System: HL-60
Test: NCI tumour cell line growth inhibition, 48 h
Calls of active or inactive are those of the source. Cut-off read from the data, not from the text of the source: active = GI50 up to about 1.1 µM and inactive = higher.
Assign a class; possible classes are 1 (yes) = active, 0 (no) = inactive

Study these solved cases before continuing.
# compound, assigned class
data = [
    ("N#CC1=C(N)OC2=C(CCCc3ccccc32)C1c1ccc([N+](=O)[O-])cc1 (stereo not given)", "0 (no)"),
    ("COc1cc2c(cc1OC)[C@H]1CN3CCC[C@H]3C=C1c1ccc(OC)c(O)c1-2", "1 (yes)"),
    ("CC1=NN(C(=O)CC(=O)Nc2ccccc2Cl)C(=O)C1/N=N/c1ccc(C(=O)O)cc1 (stereo not given)", "0 (no)"),
    ("O=S(=O)(O)c1ccc(/N=N/c2nc(C(F)(F)F)c(C(F)(F)F)[nH]2)cc1", "0 (no)"),
    ("COc1ccc(N2C(=O)C3c4[nH]c5ccccc5c4C4CCC(C(C)(C)C)CC4C3C2=O)cc1OC (stereo not given)", "0 (no)"),
    ("COc1cc(/C=C\\c2ccccc2)cc(OC)c1OC", "0 (no)"),
    ("CC(C)(C)OP(=O)(OC(C)(C)C)C(O)c1ccc(/C=C(\\C#N)C(N)=O)cc1 (stereo not given)", "0 (no)"),
    ("CC(C)[Si]1(C(C)C)OCC2OC(n3cnc4c(N)ncnc43)C(N)C2O[Si](C(C)C)(C(C)C)O1 (stereo not given)", "0 (no)"),
]

Just curious, what result did CS(=O)(=O)NC12CCC(c3ccccc31)c1ccccc12 get here?
0 (no)

Could you kindly confirm the outcome this assay logged for S=C(N/N=C/c1ccccn1)N1CCCCC1 ?
1 (yes)

* * *

Recorded GI50, one value per entry.
Test system: NCI-H460
Test: NCI tumour cell line growth inhibition, 48 h
Active and inactive are the calls of the source. No stated cut-off is given here; in the data, active = GI50 up to about 1.1 µM and inactive = higher.

Using the record for CC(C)(Br)C(=O)N1CCN(C(c2ccccc2)c2ccccc2)CC1 , state its measured GI50.
> 100 µM (inactive)

Provide measured GI50 value, entry: CC(=O)OCC1=CC2OC(=O)C3=COC(OC4OC(CO)C(O)C(O)C4O)C1C32 (stereo unspecified)
> 10 µM (inactive)

Output measured GI50 for this item: COc1cccc(OC)c1/C=N\N1C(=O)c2ccccc2C1=O
43.2 µM (inactive)

* * *

System: M14
Test: NCI tumour cell line growth inhibition, 48 h
Active and inactive are the calls of the source. No stated cut-off is given here; in the data, active = GI50 up to about 1.1 µM and inactive = higher.
metric: GI50

Use the examples below as a reference point.
# compound, GI50
rows = [
    ("CCOC(=O)c1nnsc1NN=C(C)C", "> 100 µM (inactive)"),
    ("N#CCCSC(=S)C1CCCC1=N (configuration not stated)", "> 100 µM (inactive)"),
    ("CSC1NC=Nc2c1sc(=S)n2-c1ccccc1 (configuration not stated)", "> 100 µM (inactive)"),
]

Please indicate recorded GI50 of CC1OC(n2cc(F)c(=O)[nH]c2=O)C=CC1=O (configuration not stated) measured with M14.
17.5 µM (inactive)

Give measured GI50 for COC1CC(n2ccc(=O)[nH]c2=O)OC1CO (configuration not stated) (M14).
> 100 µM (inactive)

Enter measured GI50, system M14, for the compound shown: COc1ccc(/C=C/C(=O)/C=C/c2ccc(OC)cc2OC)c(OC)c1
7.14 µM (inactive)

Enter GI50 (test system M14) for Nc1nccc(Nc2ccc(S(N)(=O)=O)cc2)n1
> 100 µM (inactive)
